Numbers sourced from patent US11976083B2.

target: human PAD4 (Homo sapiens); construct: human PAD4 (NM_012387), A2-P663, was PCR amplified; His-SUMO (N, cleaved yes); assay: In vitro PAD4 BAEE biochemical assay; conditions: BAEE substrate 3 mM, 5 nM PAD4, 2 mM calcium chloride; geometric mean of multiple experiments
Sequence (Q9UM07 2-663): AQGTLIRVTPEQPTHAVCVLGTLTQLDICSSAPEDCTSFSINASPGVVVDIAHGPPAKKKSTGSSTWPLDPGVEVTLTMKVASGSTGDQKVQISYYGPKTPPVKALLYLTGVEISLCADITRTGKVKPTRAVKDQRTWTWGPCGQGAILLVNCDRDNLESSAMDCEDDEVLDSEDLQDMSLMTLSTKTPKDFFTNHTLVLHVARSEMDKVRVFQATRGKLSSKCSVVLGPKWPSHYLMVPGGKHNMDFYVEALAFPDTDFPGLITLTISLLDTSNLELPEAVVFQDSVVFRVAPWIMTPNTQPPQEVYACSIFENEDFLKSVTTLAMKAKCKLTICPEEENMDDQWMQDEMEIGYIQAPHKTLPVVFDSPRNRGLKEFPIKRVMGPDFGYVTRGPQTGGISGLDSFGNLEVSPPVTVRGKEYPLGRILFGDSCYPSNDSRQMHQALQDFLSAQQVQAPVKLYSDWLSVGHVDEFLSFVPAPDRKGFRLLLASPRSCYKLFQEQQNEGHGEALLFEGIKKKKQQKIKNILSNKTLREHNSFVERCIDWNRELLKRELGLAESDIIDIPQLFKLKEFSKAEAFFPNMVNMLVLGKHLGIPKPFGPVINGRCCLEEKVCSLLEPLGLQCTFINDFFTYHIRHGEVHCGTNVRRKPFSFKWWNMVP
// values below are reported log10 of IC50
Property Label: log10 of IC50 (log10 of the value in nM)

Compound	Assayed Target	log10 of IC50
C[C@H]1NC(=O)[C@]2(F)C[C@H]2CCCCCn2c(-c3nc4cc(C(=O)N[C@H]5CNCC[C@@H]5F)c(F)cc4n3C3CC3)cc3ccc1nc32 [Example 387]	human PAD4 (Homo sapiens)	1.40
COc1cc(C(=O)N2CC[C@@H](OC)[C@@H](N)C2)cc2nc(-c3cc4ccc5nc4n3CCCCCc3ccc(Cl)nc3C(=O)N[C@@H]5C)n(C)c12 [Example 780]	human PAD4 (Homo sapiens)	1.72
COc1cc(C(=O)N2C[C@H](N)[C@@H]3CC[C@H]2[C@H]3F)cc2nc(-c3cc4ccc5nc4n3CC(F)(F)CCC[C@@H]3C[C@H]3C(=O)N[C@@H]5C)n(C)c12 [Example 668]	human PAD4 (Homo sapiens)	1.34
COc1cc(C(=O)N2[C@H]3CC[C@@H]2[C@H](N)C3)cc2nc(-c3cc4ccc5nc4n3CCCCC[C@@H](OC)CC(=O)N[C@@H]5C)c(C)n12 [Example 333]	human PAD4 (Homo sapiens)	1.52
COc1cc(C(=O)N2C[C@H](N)CCN2C)cc2nc(-c3cc4ccc5nc4n3CCCCCc3ccccc3C(=O)N[C@@H]5C)n(C)c12 [Example 44]	human PAD4 (Homo sapiens)	1.81
C[C@H]1NC(=O)c2ccc(Cl)nc2CCCCCn2c(-c3nc4cc(C(=O)N5[C@H]6CC[C@@H]5[C@H](N)C6)cc(F)c4n3C3CC3)cc3ccc1nc32 [Example 808]	human PAD4 (Homo sapiens)	1.18
COc1cc(C(=O)N2[C@H]3CC[C@@H]2[C@H](N)C3)cc2nc(-c3cc4ccc5nc4n3C[C@H]3CC[C@H]3COCCC(=O)N[C@@H]5C)c(C)n12 [Example 8]	human PAD4 (Homo sapiens)	1.85
COc1cc(C(=O)N2C[C@H](N)C[C@H](C(F)F)C2)cc2nc(-c3cc4ccc5nc4n3CCCCC[C@@H]3C[C@H]3C(=O)N[C@@H]5C)n(C)c12 [Example 631]	human PAD4 (Homo sapiens)	2.32
COc1cc(C(=O)N2CC[C@H]3OCCN[C@H]3C2)cc2nc(-c3cc4ccc5nc4n3CCCCCCC3(CC3)C(=O)N[C@@H]5C)n(C)c12 [Example 343]	human PAD4 (Homo sapiens)	2.57
C[C@H]1NC(=O)c2cc(Cl)ncc2CCCCCn2c(-c3nc4cc(C(=O)N5C[C@H](N)[C@@H]6CC[C@H]5C6)cc(F)c4n3C3CC3)cc3ccc1nc32 [Example 672]	human PAD4 (Homo sapiens)	1.45
COc1cc(C(=O)N2CC[C@@H](OC(F)F)[C@@H](N)C2)cc2nc(-c3cc4ccc5nc4n3CC(F)(F)CCC[C@@H]3C[C@H]3C(=O)N[C@@H]5C)n(C)c12 [Example 850]	human PAD4 (Homo sapiens)	1.81
COc1cc(C(=O)N2C[C@H](N)[C@@H]3CC[C@H]2C3)cc2nc(-c3cc4ccc5nc4n3CC(F)(F)CCCCC3(CC3)C(=O)N[C@@H]5C)n(C3CC3)c12 [Example 940]	human PAD4 (Homo sapiens)	1.90
C[C@H]1NC(=O)[C@@H]2C[C@H]2CCCC(F)(F)Cn2c(-c3nc4cc(C(=O)N[C@H]5CNCC[C@@H]5F)c(F)c(F)c4n3C3CC3)cc3ccc1nc32 [Example 189]	human PAD4 (Homo sapiens)	1.52
COc1cc(C(=O)N2C[C@H](N)[C@@H]3CC[C@H]2C3)cc2nc(-c3cc4ccc5nc4n3CCCCCc3cc(C(F)F)ccc3C(=O)N[C@@H]5C)n(C)c12 [Example 896]	human PAD4 (Homo sapiens)	1.75
Cc1cc2c(cc1C(=O)N1[C@H]3CC[C@@H]1[C@H](N)C3)nc(-c1cc3ccc4nc3n1CCCCCCC(C)(C)C(=O)N[C@@H]4C)n2C [Example 556]	human PAD4 (Homo sapiens)	1.84
COc1cc(C(=O)N2CCC[C@@H](N)C2)cc2nc(-c3cc4ccc5nc4n3C[C@H]3C[C@H]3CC[C@H]3C[C@@H]3C(=O)N[C@@H]5C)n(C)c12 (single isomer, unassigned) [Example 116]	human PAD4 (Homo sapiens)	2.41
COc1cc(C(=O)N2CC[C@@H](OC)[C@@H](N)C2)cc2nc(-c3cc4ccc5nc4n3CC(F)(F)CCC[C@]3(F)C[C@H]3C(=O)N[C@@H]5C)n(C)c12 [Example 702]	human PAD4 (Homo sapiens)	1.32
CCC1NC(=O)C(C)(C)CCCCCCn2c(-c3nc4cc(C(=O)N5CC[C@@H](OC)[C@@H](N)C5)cc(OC)c4n3C)cc3ccc1nc32 (stereo partly shown) [Example 779]	human PAD4 (Homo sapiens)	2.53
COc1cc(C(=O)N[C@@H]2CNC[C@@H](O)C2)cc2nc(-c3cc4ccc5nc4n3CCCCCCC(C)(C)C(=O)N[C@@H]5C)n(C)c12 [Example 529]	human PAD4 (Homo sapiens)	2.61
Cc1nccc2c1C(=O)N[C@H](C)c1ccc3cc(-c4nc5cc(C(=O)N[C@H]6CNCC[C@@H]6F)c(F)cc5n4C4CC4)n(c3n1)CCCCC2 [Example 396]	human PAD4 (Homo sapiens)	1.23
COc1cc(C(=O)N2[C@H]3CC[C@@H]2[C@H](N)C3)cc2nc(-c3cc4ccc5nc4n3C[C@@H]3C[C@@H]3COCCC(=O)N[C@@H]5C)c(C)n12 (single isomer, unassigned) [Example 328]	human PAD4 (Homo sapiens)	1.40
COc1cc(C(=O)N2C[C@@H]3C[C@@H]3[C@@H](N)C2)cc2nc(-c3cc4ccc5nc4n3CCCCCCC(C)(C)C(=O)N[C@@H]5C)n(C)c12 [Example 542]	human PAD4 (Homo sapiens)	2.68
